Data origin: PubChem BioAssay (NCI)

# Test system: HOP-92 NSCLC
# TEST_DESCRIPTION: NCI-60 one-dose screen, 48 h
# EXPERIMENTAL_SETUP: 10 µM unless noted
About 83,000 compounds went through this panel and 20% of them were active in at least one assay; those are over-represented in the sample as a whole. The source made the active and inactive calls. The calls were made as follows: active = growth percent below 10; inactive = the rest.
Classes to choose from: t (active), f (inactive)

1. COc1ccc(Cn2cc(C(=O)N=Nc3c(O)[nH]c4c(Cl)cccc34)nn2)cc1 | f
2. C/C(C=O)=C\c1ccc2c(c1)OCO2 | f
3. O=C(Cn1cc(CN2C(=O)c3ccccc3S2(=O)=O)nn1)Nc1cccc(Cl)c1 | f
4. CCOC(=O)c1c(NC(=O)CSc2n[nH]c3nc4ccccc4n23)sc(CC)c1C | f
5. COc1cc(C(=O)c2c(N)ncn2-c2ccccc2)cc(OC)c1OC | f

// param item: Cc1ccc2[nH]c(-c3ccc(S(C)(=O)=O)cc3)c(/C=N/N=C(N)N)c2c1 ; yields the recorded call
f

// param item: Cc1[nH]c(/C=C/C(=O)c2ccc(C(F)(F)F)c(F)c2)c(C)c1C(=O)NCC(C)C ; yields the recorded call
f

// param item: NC(=O)c1ccc(NC(=O)c2oc3ccccc3c2-c2cnn(-c3ccccc3)c2)cc1 ; yields the recorded call
t

// param item: Cc1cc2nc3c4ccccc4n(CCN(C)C)c3nc2cc1C ; yields the recorded call
f

// param item: C=C1C(=O)O[C@H]2[C@H]1CC/C(COC(=O)NCc1ccc(Cn3c(=O)sn(-c4ccc(OC)cc4)c3=O)cc1)=C\CC[C@@]1(C)O[C@@H]21 ; yields the recorded call
t

// param item: O=C(/C=C/c1ccc(Br)cc1)c1ccc(-n2cc(CN3CCN(c4cc5c(cc4F)c(=O)c(C(=O)O)cn5C4CC4)CC3)nn2)cc1 ; yields the recorded call
f
